- Tested on: RARg:RXRa (NR concentration 270 nM, RXRa partner concentration 90 nM)
- test_details: PBM binding z-score (relative to random genomic background probes); higher = stronger binding; sequences stand for … in GC…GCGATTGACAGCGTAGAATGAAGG
So basically every entry gets a class from its PBM binding z-score, ranges being low range = under 3, mid range = from 3 up to 4, high range = 4 and over

Req: Textbook exercise: identify the category of the sequence given here, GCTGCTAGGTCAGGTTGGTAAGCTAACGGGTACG , according to its measured value.
Resp: low range

Req: Now the sequence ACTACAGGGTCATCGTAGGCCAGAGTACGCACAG
Resp: high range

Req: Now the sequence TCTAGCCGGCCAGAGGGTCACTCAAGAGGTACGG
Resp: low range

Req: Now the sequence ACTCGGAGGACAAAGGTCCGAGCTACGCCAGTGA
Resp: low range

Req: Now the sequence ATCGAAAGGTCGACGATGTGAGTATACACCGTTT
Resp: mid range

Req: Now the sequence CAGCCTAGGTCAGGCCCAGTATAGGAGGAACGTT
Resp: low range

Req: Now the sequence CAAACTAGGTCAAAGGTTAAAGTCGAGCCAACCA
Resp: high range

Req: Now the sequence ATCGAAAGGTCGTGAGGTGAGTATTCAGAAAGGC
Resp: high range

Req: Now the sequence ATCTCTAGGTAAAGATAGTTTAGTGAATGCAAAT
Resp: low range

Req: Now the sequence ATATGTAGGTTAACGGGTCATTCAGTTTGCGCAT
Resp: mid range

Req: Now the sequence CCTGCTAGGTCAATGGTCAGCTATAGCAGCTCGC
Resp: mid range
